System: SK-ES-1 (Ewing's Sarcoma)
method: combination Emax (second highest fraction inhibited in the dose matrix, 72 h); higher = more inhibition; extreme values may be limits of the assay
parameter: combination Emax
A bare number is all that is needed in reply.

| molecule | targetOrSystem | combination Emax |
| --- | --- | --- |
| CN(CCO)CC[C@H](CSc1ccccc1)Nc1ccc(S(=O)(=O)NC(=O)c2ccc(N3CCC([C@@H](O)c4ccccc4-c4ccc(Cl)cc4)CC3)cc2)cc1S(=O)(=O)C(F)(F)F [AZD4320] + C[C@@H](Nc1cc(F)cc(F)c1)c1cc(C(=O)N(C)C)cc2c(=O)cc(N3CCOCC3)oc12 [AZD8186] (first compound max 1 µM, 7x7, partner max 3 µM) | SK-ES-1 (Ewing's Sarcoma) | 0.987 |
| Cc1c2c(nn1C)CSCc1cc(n(C)n1)CSc1cc(c3ccccc3c1)OCCCc1c(C(=O)O)n(C)c3c-2c(Cl)ccc13 [AZD5991] + CCN(CCO)CCCOc1ccc2c(Nc3cc(CC(=O)Nc4cccc(F)c4)[nH]n3)ncnc2c1 [AZD2811] (first compound max 1 µM, 7x7, partner max 1 µM) | SK-ES-1 (Ewing's Sarcoma) | 1 |
| Cc1c2c(nn1C)CSCc1cc(n(C)n1)CSc1cc(c3ccccc3c1)OCCCc1c(C(=O)O)n(C)c3c-2c(Cl)ccc13 [AZD5991] + Cc1cc2ncnn2cc1Nc1ncc2c(n1)n(C1CCOCC1)c(=O)n2C [AZD7648] (first compound max 1 µM, 7x7, partner max 10 µM) | SK-ES-1 (Ewing's Sarcoma) | 0.813 |
| CCN(CCO)CCCOc1ccc2c(Nc3cc(CC(=O)Nc4cccc(F)c4)[nH]n3)ncnc2c1 [AZD2811] + C=CCn1c(=O)c2cnc(Nc3ccc(N4CCN(C)CC4)cc3)nc2n1-c1cccc(C(C)(C)O)n1 [AZD1775] (first compound max 1 µM, partner max 1 µM) | SK-ES-1 (Ewing's Sarcoma) | 0.971 |
| Cc1c2c(nn1C)CSCc1cc(n(C)n1)CSc1cc(c3ccccc3c1)OCCCc1c(C(=O)O)n(C)c3c-2c(Cl)ccc13 [AZD5991] + CC1(C)CCC(CN2CCN(c3ccc(C(=O)NS(=O)(=O)c4ccc(NCC5CCOCC5)c([N+](=O)[O-])c4)c(Oc4cnc5[nH]ccc5c4)c3)CC2)=C(c2ccc(Cl)cc2)C1 [Venetoclax] (first compound max 1 µM, 7x7, partner max 1 µM) | SK-ES-1 (Ewing's Sarcoma) | 1 |

Q. // query combination Emax value for entry Cc1c2c(nn1C)CSCc1cc(n(C)n1)CSc1cc(c3ccccc3c1)OCCCc1c(C(=O)O)n(C)c3c-2c(Cl)ccc13 [AZD5991] + Cn1cnc2c(F)c(Nc3ccc(Br)cc3Cl)c(C(=O)NOCCO)cc21 [Selumetinib] (first compound max 1 µM, 7x7, partner max 3 µM)
A. 0.809

Q. // query combination Emax value for entry COc1nnc2ccc(N3CCC(c4ccc(OCCN5CCN(C)C(=O)[C@H]5C)cc4)CC3)nn12 [AZD5153] + CN(CC[C@H](CSC1=CC=CC=C1)NC2=C(C=C(C=C2)S(=O)(=O)NC(=O)C3=CC=C(C=C3)N4CCC(CC4)[C@H](C5=CC=CC=C5C6=CC=C(C=C6)Cl)O)S(=O)(=O)C(F)(F)F)CCO [AZD4320] (first compound max 1 µM, 7x7, partner max 1 µM)
A. 0.871

====

Test system: RO82-W-1 (Thyroid Gland Carcinoma)
method: Bliss excess, mean over the matrix (fraction); higher = more synergy
# maps each entry to its Bliss excess
A bare number is all that is needed in reply.

Consider the reported Bliss excess for these compounds:
| compound | Bliss excess |
| --- | --- |
| CC1(C)CCC(CN2CCN(c3ccc(C(=O)NS(=O)(=O)c4ccc(NCC5CCOCC5)c([N+](=O)[O-])c4)c(Oc4cnc5[nH]ccc5c4)c3)CC2)=C(c2ccc(Cl)cc2)C1 [Venetoclax] + CCN(CCO)CCCOc1ccc2c(Nc3cc(CC(=O)Nc4cccc(F)c4)[nH]n3)ncnc2c1 [AZD2811] (first compound max 1 µM, 7x7, partner max 1 µM) | -0.0604 |
| COc1cc2c(cc1OCCCCCOc1cc3c(cc1OC)C(=O)N1C=C(C)C[C@H]1C=N3)N=C[C@@H]1CC(C)=CN1C2=O [SG3199] + O=C(c1cc(Cc2n[nH]c(=O)c3ccccc23)ccc1F)N1CCN(C(=O)C2CC2)CC1 [Olaparib] (first compound max 0.001 µM, 7x7, partner max 10 µM) | -0.0704 |

Then this compound:
Q. Query Bliss excess on RO82-W-1 (Thyroid Gland Carcinoma) for Cn1cnc2c(F)c(Nc3ccc(Br)cc3Cl)c(C(=O)NOCCO)cc21 [Selumetinib] + C[C@@H]1COCCN1C2=NC(=NC(=C2)C3(CC3)[S@](=N)(=O)C)C4=C5C=CNC5=NC=C4 [AZD6738] (first compound max 10 µM, 7x7, partner max 10 µM)
A. -0.0242

====

System: TE-15 (Esophageal Squamous Cell Carcinoma)
method: Bliss excess, mean over the matrix (fraction); higher = more synergy
parameter: Bliss excess

| molecule | parameter | recordedMeasurement |
| --- | --- | --- |
| CS(=O)(=O)CCNCc1ccc(-c2ccc3ncnc(Nc4ccc(OCc5cccc(F)c5)c(Cl)c4)c3c2)o1 [Lapatinib] + NC1(c2ccc(-c3nc4ccn5c(=O)[nH]nc5c4cc3-c3ccccc3)cc2)CCC1 [MK-2206] (first compound max 10 µM, 7x7, partner max 10 µM) | Bliss excess | -0.0202 |

Then this molecule:
Q. // query Bliss excess value for entry COc1cccc(OCCCN)c1-c1cc(Nc2cnc(C#N)cn2)n[nH]1 [Prexasertib] + O=C(c1cc(Cc2n[nH]c(=O)c3ccccc23)ccc1F)N1CCN(C(=O)C2CC2)CC1 [Olaparib] (first compound max 1 µM, 7x7, partner max 10 µM)
A. -0.0427

====

Test system: KP-1N (Pancreatic Carcinoma)
method: combination Emax (second highest fraction inhibited in the dose matrix, 72 h); higher = more inhibition; extreme values may be limits of the assay
parameter: combination Emax
A bare number is all that is needed in reply.

| compound | combination Emax |
| --- | --- |
| Cc1c2c(nn1C)CSCc1cc(n(C)n1)CSc1cc(c3ccccc3c1)OCCCc1c(C(=O)O)n(C)c3c-2c(Cl)ccc13 [AZD5991] + C1CN(CCC1(C(=O)N[C@@H](CCO)C2=CC=C(C=C2)Cl)N)C3=NC=NC4=C3C=CN4 [Capivasertib] (first compound max 1 µM, 7x7, partner max 3 µM) | 0.249 |
| C=CCn1c(=O)c2cnc(Nc3ccc(N4CCN(C)CC4)cc3)nc2n1-c1cccc(C(C)(C)O)n1 [AZD1775] + C[C@@H]1COCCN1C2=NC(=NC(=C2)C3(CC3)[S@](=N)(=O)C)C4=C5C=CNC5=NC=C4 [AZD6738] (first compound max 1 µM, partner max 10 µM) | 0.397 |

Q. // query combination Emax value for entry CC(=O)Nc1cccc(-n2c(=O)n(C3CC3)c(=O)c3c(Nc4ccc(I)cc4F)n(C)c(=O)c(C)c32)c1 [Trametinib] + Cc1nc(-c2cn3c(n2)-c2ccc(-c4cnn(C(C)(C)C(N)=O)c4)cc2OCC3)n(C(C)C)n1 [Taselisib] (first compound max 1 µM, 7x7, partner max 10 µM)
A. 0.644

====

System: Calu-3 (Lung Adenocarcinoma)
method: combination Emax (second highest fraction inhibited in the dose matrix, 72 h); higher = more inhibition; extreme values may be limits of the assay
# maps each entry to its combination Emax
A bare number is all that is needed in reply.

Consider the reported combination Emax for these compounds:
| compound | targetOrSystem | combination Emax |
| --- | --- | --- |
| O=C(c1cc(Cc2n[nH]c(=O)c3ccccc23)ccc1F)N1CCN(C(=O)C2CC2)CC1 [Olaparib] + Cc1c2c(nn1C)CSCc1cc(n(C)n1)CSc1cc(c3ccccc3c1)OCCCc1c(C(=O)O)n(C)c3c-2c(Cl)ccc13 [AZD5991] (first compound max 10 µM, 7x7, partner max 1 µM) | Calu-3 (Lung Adenocarcinoma) | 0.0927 |
| NC1(C(=O)N[C@@H](CCO)c2ccc(Cl)cc2)CCN(c2ncnc3[nH]ccc23)CC1 [Capivasertib] + Cn1cnc2c(F)c(Nc3ccc(Br)cc3Cl)c(C(=O)NOCCO)cc21 [Selumetinib] (first compound max 10 µM, 7x7, partner max 10 µM) | Calu-3 (Lung Adenocarcinoma) | 0.461 |
| CN(CCO)CC[C@H](CSc1ccccc1)Nc1ccc(S(=O)(=O)NC(=O)c2ccc(N3CCC([C@@H](O)c4ccccc4-c4ccc(Cl)cc4)CC3)cc2)cc1S(=O)(=O)C(F)(F)F [AZD4320] + Nc1ccn([C@@H]2O[C@H](CO)[C@@H](O)C2(F)F)c(=O)n1 [Gemcitabine] (first compound max 1 µM, 7x7, partner max 0.3 µM) | Calu-3 (Lung Adenocarcinoma) | 0.624 |

Q. Query combination Emax on Calu-3 (Lung Adenocarcinoma) for CN(C)CCCOc1ccc(-c2ccc3ncc4c(c3c2)n(C2CCOCC2)c(=O)n4C)cn1 [AZD0156] + CCN(CCO)CCCOc1ccc2c(Nc3cc(CC(=O)Nc4cccc(F)c4)[nH]n3)ncnc2c1 [AZD2811] (first compound max 1 µM, 7x7, partner max 1 µM)
A. 0.061
